Biological target: SARS-CoV-2刺突蛋白RBD区重组蛋白 (SARS-CoV-2, UniProt P0DTC2 319-541)
Assay: SPR, BIAcore T-200, RBD amine-coupled on CM5 chip, VHH in flow
Please respond with Y when measured koff is strictly beneath 0.005 s⁻¹, and with N in all other cases.

[[record]]
binder = "单域抗体3F11 (VHH) VHH: QVQLVESGGGLVQPGGSLRLSCAASGGNAAERMAGWFRQAPGKGLEAVAAIYYAKFGPYYADSVKGRFTISRDNSKNTLYLQMNSLRAEDTAVYYCAAEAFVQSPYSGSHTTKYWGQGTQVTVSS"
class = "N"

[[record]]
binder = "单域抗体2F2 (VHH) VHH: QVQLVESGGGLVQPGGSLRLSCAASGLAQSKWAYGWFRQAPGKGLEAVAAIDVATGPWYYADSVKGRFTISRDNSKNTLYLQMNSLRAEDTAVYYCAAHHIPTKHPAFPDFRDYWGQGTQVTVSS"
class = "Y"

[[record]]
binder = "单域抗体4D8 (VHH) VHH: QVQLVESGGGLVQPGGSLRLSCAASGNIDSTRYHGWFRQAPGKGLEAVAAIKGVWPEDYYADSVKGRFTISRDNSKNTLYLQMNSLRAEDTAVYYCAADQYEWWVPGEVGPYLYWGQGTQVTVSS"
class = "N"

[[record]]
binder = "单域抗体5F8 (VHH) VHH: QVQLVESGGGLVQPGGSLRLSCAASGRQAVVFGWFRQAPGKGLEAVAAIHVPAKNRYYADSVKGRFTISRDNSKNTLYLQMNSLRAEDTAVYYCAAHYEFNDFVWQGYSSDYWGQGTQVTVSS"
class = "Y"

[[record]]
binder = "单域抗体1E2 (VHH) VHH: QVQLVESGGGLVQPGGSLRLSCAASGADAFVIIGGWFRQAPGKGLEAVAAIAWTDQHEYYADSVKGRFTISRDNSKNTLYLQMNSLRAEDTAVYYCAAQDSAYIKSKGSRAYEYWGQGTQVTVSS"
class = "N"

